tested on: A549; experiment: Inhibitory concentration […] exhibited against A549 cell line […]; assay type: functional, organism-based; settings: Homo sapiens
MEASURED_PARAMETER: IC50 (nM)
Number in nM, nothing else.

Worked cases, IC50 given:
C=C/C=C\[C@H](C)[C@H](OC(N)=O)[C@@H](C)[C@H](O)[C@@H](C)C/C=C\[C@H](C)[C@@H](O)[C@@H](C)/C=C\[C@@H](O)C[C@@H]1OC(=O)[C@H](C)[C@@H](O)[C@H]1C = 50
C=C/C=C\[C@H](C)[C@H](OC(N)=O)[C@@H](C)[C@H](O)[C@@H](C)C/C(C)=C\[C@H](C)[C@@H](O)[C@@H](C)/C=C\[C@@H](O)C[C@@H]1OC(=O)C(C)=C[C@H]1C = 8.6
C=C/C=C\[C@H](C)[C@H](OC(N)=O)[C@@H](C)[C@H](O)[C@@H](C)C/C(C)=C\[C@H](C)[C@@H](O)[C@@H](C)/C=C\[C@@H](O)C[C@@H]1OC(=O)[C@H](C)[C@@H](O)[C@H]1C [DISERMOLIDE] = 22

Note to self: IC50 recorded for C=C/C=C\[C@H](C)[C@H](OC(N)=O)[C@@H](C)[C@H](O)[C@@H](C)C/C(C)=C\[C@H](C)[C@@H](O)[C@@H](C)/C=C\[C@@H](O)C[C@@H]1OC(=O)C=C[C@H]1C was 3.7

The origin of these recorded values is ChEMBL document CHEMBL1142765.
